# testedTarget: UniProt P03372
# Sequence (P03372 whole entry): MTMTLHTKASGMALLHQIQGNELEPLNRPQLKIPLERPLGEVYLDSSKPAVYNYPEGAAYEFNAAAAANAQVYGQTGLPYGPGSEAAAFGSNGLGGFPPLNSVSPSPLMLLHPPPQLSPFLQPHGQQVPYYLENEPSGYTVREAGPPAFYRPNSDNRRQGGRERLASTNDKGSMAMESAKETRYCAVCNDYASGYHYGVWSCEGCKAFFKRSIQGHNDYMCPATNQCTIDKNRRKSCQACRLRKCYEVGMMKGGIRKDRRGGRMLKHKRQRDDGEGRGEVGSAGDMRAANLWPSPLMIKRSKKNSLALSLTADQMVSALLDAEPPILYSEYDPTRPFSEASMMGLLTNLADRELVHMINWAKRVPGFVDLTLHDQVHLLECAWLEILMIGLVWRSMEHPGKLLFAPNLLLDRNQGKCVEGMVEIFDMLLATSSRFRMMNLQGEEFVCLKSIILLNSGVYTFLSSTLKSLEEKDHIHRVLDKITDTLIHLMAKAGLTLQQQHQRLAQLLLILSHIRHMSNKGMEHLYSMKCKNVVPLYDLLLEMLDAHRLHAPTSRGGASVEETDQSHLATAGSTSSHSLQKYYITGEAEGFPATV
# statedConditions: MCF7, 25 uM
outcomeMeasure: inhibition (%)
API: value field is a number in %; no unit string.

Previously resolved entries follow.
| substanceSmiles | unitsLabel | numericValue |
| --- | --- | --- |
| CCCCCCOc1ccc2c(=O)c(-c3ccc(O)cc3)coc2c1 | % | 46.4 |
| O=c1c(-c2ccc(O)cc2)coc2cc(OC3CCCC3)ccc12 | % | 89.8 |
| COc1ccc2c(=O)c(-c3ccc(O)cc3)coc2c1 | % | 33.2 |

Tell me inhibition of "CCOc1ccc2c(=O)c(-c3ccc(O)cc3)coc2c1" when tested on UniProt P03372.
18.8

Tell me inhibition of "CC(C)COc1ccc2c(=O)c(-c3ccc(O)cc3)coc2c1" when tested on UniProt P03372.
91.3

Tell me inhibition of "CC1(C)C=Cc2c(ccc3c(=O)c(-c4ccc(O)cc4)coc23)O1" when tested on UniProt P03372.
100

Tell me inhibition of "CCCOc1ccc2c(=O)c(-c3ccc(O)cc3)coc2c1" when tested on UniProt P03372.
41.4

Tell me inhibition of "CC(C)Oc1ccc2c(=O)c(-c3ccc(O)cc3)coc2c1" when tested on UniProt P03372.
68.1

Tell me inhibition of "CCCCOc1ccc2c(=O)c(-c3ccc(O)cc3)coc2c1" when tested on UniProt P03372.
49.8

// data source = ChEMBL document CHEMBL1212895
